Source of measurements: paper PMC12040169

assay: in vitro
statedConditions: human, hela cells, % viability
Reported viability at 28.5 h, 10 µM values for the following compounds.
Entry rule: numbers only, all in %.

Examples with their reported viability at 28.5 h, 10 µM follow.
                                   compound  resultvalue
0  O=C(NCCN1CCOCC1)c1ccc(NS(=O)(=O)c2ccccc2)cc1          102
1     CN(C)S(=O)(=O)NNC(=O)c1c[nH]c2ccccc12          102
2  CC1=C[C@@H](CNS(=O)(=O)c2cccs2)[C@H](C(C)C)C[C@H]1CC(=O)O         92.4
3  CC(NS(=O)(=O)c1ccccc1Cl)C(=O)N1CCCCC1C (stereo not drawn)         93.9

Name the recorded viability at 28.5 h, 10 µM for "Cc1nc(CC(=O)N2[C@H]3CCCCCN(C)[C@@]3(C)C[C@H]2c2ccccc2)cs1" . 109

Name the recorded viability at 28.5 h, 10 µM for "NC(=O)c1ccc(-c2nccnc2NCc2ccc3c(c2)OCO3)cc1" . 91.3

Name the recorded viability at 28.5 h, 10 µM for C1=C(CNC(Cc2cccs2)c2nccs2)COCC1 (stereo not drawn) . 103

Name the recorded viability at 28.5 h, 10 µM for "CCOc1cc(OCC)cc(C(=O)Nc2ccc(-c3nc4ncccc4o3)cc2)c1" . 96.8

Name the recorded viability at 28.5 h, 10 µM for "O=c1n(-c2ccc(OC(F)(F)F)cc2)ccn1S(=O)(=O)c1ccc(Cl)c(Cl)c1" . 94.7
